- Tested on: SK-MEL-28 melanoma
- protocol details: NCI-60 one-dose screen, 48 h
- settings: 10 µM unless noted
This is part of a sample that, as a whole, favours compounds with a hit. Of some 83,000 tested, about 20% had one in any assay. Activity calls are given as the source filed them. Rule for the calls: active = growth percent below 10; inactive = the rest.
Classes used: active, inactive

                               smiles_entry         test_system  label_value
0  CN(C)CCN(C)c1ccc2ncc(C#Cc3cncc(C(=O)Nc4ccc(CN5CCN(C)CC5)c(C(F)(F)F)c4)c3)n2n1  SK-MEL-28 melanoma     inactive
1  Cc1[nH]c(C(=O)Nc2ccccc2OCc2cccc(C(=O)N3CCC[C@@H](N)C3)c2)c(Cl)c1Cl  SK-MEL-28 melanoma       active
2  CC1(C)CC[C@]2(C(=O)N3CCOCC3)CC[C@]3(C)C(=CC[C@@H]4[C@@]5(C)C/C(=C/c6ccco6)C(=O)C(C)(C)[C@@H]5CC[C@]43C)[C@@H]2C1  SK-MEL-28 melanoma     inactive
3  CCn1c(SCC(=O)Nc2cccc(C(=O)/C=C/c3ccc(Br)cc3)c2)nc2ccccc2c1=O  SK-MEL-28 melanoma     inactive
